System: Clostridium sporogenes DSM 1664
test.description: growth (OD595) fold change vs plate DMSO controls (fold change (ratio)); higher = more growth
details: incubation time: 27 h, anaerobic, 37 °C
Where a name gives a salt, the structure may show the parent alone.
property: growth
One number for each entry.

CCCCNC(=N)NC(=N)N [Buformin] (20 µM)    1.02
CO/N=C(\C(=O)N[C@@H]1C(=O)N2C(C(=O)O)=C(COC(N)=O)CS[C@H]12)c1ccco1 [Cefuroxime sodium salt] (20 µM)    0
CCc1c(C)[nH]c2c1C(=O)C(CN1CCOCC1)CC2 (stereo not given) [Molindone hydrochloride] (20 µM)    0.781
Clc1ccc(CSC(Cn2ccnc2)c2ccc(Cl)cc2Cl)cc1 (stereo not given) [Sulconazole nitrate] (20 µM)    0.862
CN(C)CCN1C(=O)c2ccccc2N(C)c2ccccc21 [Dibenzepine hydrochloride] (20 µM)    1.02
CN(C)CCC(c1ccc(Br)cc1)c1ccccn1 (stereo not given) [Brompheniramine maleate] (20 µM)    0.959

Go through the items and report each one's growth.
1. CCOC(=O)[C@H](CCc1ccccc1)N[C@H]1CS[C@H](c2cccs2)CN(CC(=O)O)C1=O [Temocapril hydrochloride] (20 µM)
2. CC(=O)[C@@]1(O)CC[C@H]2[C@@H]3C[C@H](C)C4=CC(=O)C=C[C@]4(C)[C@@]3(F)[C@@H](O)C[C@@]21C [Fluorometholone] (20 µM)
3. N=C(N)NC(=O)Cc1c(Cl)cccc1Cl [Guanfacine hydrochloride] (20 µM)
4. CNC(C)CCC=C(C)C (stereo not given) [Isometheptene mucate] (20 µM)

1: 1.1; 2: 1.02; 3: 0.939; 4: 0.966

Give growth for each of the items listed below.
1. CN(C)CCOC(c1ccc(Cl)cc1)c1ccccn1 (stereo not given) [Carbinoxamine maleate salt] (20 µM)
2. C[C@H](Cc1cc2c(c(C(N)=O)c1)N(CCCO)CC2)NCCOc1ccccc1OCC(F)(F)F [Silodosin] (20 µM)

1.2
1

----------
Test system: Escherichia coli IAI1
test.description: fold change of Putrescine concentration vs plate DMSO controls (fold change (ratio)); higher = more amine produced, active = hit call of the paper (significant change in both replicates, either direction)
details: incubation time: 27 h, anaerobic, 37 °C
property: fold change of Putrescine concentration
Numbers only.

Parameter requested: fold change of Putrescine concentration. Apply to each item below.
1. CN(C)CCc1c[nH]c2ccc(C[C@H]3COC(=O)N3)cc12 [Zolmitriptan] (20 µM)
2. Brc1c(NC2=NCCN2)ccc2nccnc12 [Brimonidine L-tartrate] (20 µM)
3. COC(=O)[C@H](Cc1ccccc1)NC(=O)[C@H](CC(=O)O)NCCC(C)(C)C [Neotame] (50 µM)
4. N=C(N)c1ccc(OCCCCCOc2ccc(C(=N)N)cc2)cc1 [Pentamidine isethionate] (20 µM)

1: 1.01; 2: 0.973; 3: 1.01; 4: 0.993

----------
Test system: Clostridium sporogenes DSM 1664
test.description: fold change of Tryptamine concentration vs plate DMSO controls (fold change (ratio)); higher = more amine produced, active = hit call of the paper (significant change in both replicates, either direction)
details: incubation time: 27 h, anaerobic, 37 °C
Structures can show the parent of a compound that is named as a salt.
property: fold change of Tryptamine concentration
Answers are plain numbers.

Below, each entry is followed by its recorded fold change of Tryptamine concentration result.
O=C1CCC(N2C(=O)c3ccccc3C2=O)C(=O)N1 (stereo not drawn) [Thalidomide] (20 µM)    1
Cc1c(N)c(=O)n(-c2ccccc2)n1C [Ampyrone] (20 µM)    1.07
COc1ccc(C(Cl)=C(c2ccc(OC)cc2)c2ccc(OC)cc2)cc1 [Chlorotrianisene] (20 µM)    0.978
Cc1c(C)c2c(c(C)c1O)CCC(C)(C(=O)O)O2 (stereo not drawn) [Trolox] (20 µM)    0.995

Give fold change of Tryptamine concentration for each of the items listed below.
1. CCN(CC)CCOC(=O)C1(c2ccc([N+](=O)[O-])cc2)CCCC1 [Nitrocaramiphen hydrochloride] (20 µM)
2. CCN(CC)CCOC(=O)C1(C2CCCCC2)CCCCC1 [Dicyclomine hydrochloride] (20 µM)

1. 0.949
2. 0.991

For each of the molecules below, state fold change of Tryptamine concentration.
1. CC[C@H]1OC(=O)[C@H](C)[C@@H](O[C@H]2C[C@@](C)(OC)[C@@H](O)[C@H](C)O2)[C@H](C)[C@@H](O[C@@H]2O[C@H](C)C[C@H](N(C)C)[C@H]2O)[C@](C)(O)C[C@@H](C)[C@@H]2N[C@@H](COCCOC)O[C@H]([C@H]2C)[C@]1(C)O [Dirithromycin] (20 µM)
2. COC(=O)Nc1nc2cc(C(=O)c3ccc(F)cc3)ccc2[nH]1 [Flubendazol] (20 µM)

1. 0.0683
2. 1

----------
Would you kindly list fold change of Tryptamine concentration for each of these compounds?
Tested on: Ruminococcus gnavus DSM 108212
test.description: fold change of Tryptamine concentration vs plate DMSO controls (fold change (ratio)); higher = more amine produced, active = hit call of the paper (significant change in both replicates, either direction)
details: incubation time: 27 h, anaerobic, 37 °C
Counter-ions that a name gives are not always drawn.
Give bare numbers.

In the examples that follow, each entry is paired with its recorded fold change of Tryptamine concentration.
Cc1cc(-c2ccccc2)nnc1NCCN1CCOCC1 [Minaprine dihydrochloride] (20 µM)    0.991
O=C1c2cccc3c2[C@H](CCC3)CN1[C@@H]1CN2CCC1CC2 [Palonosetron hydrochloride] (20 µM)    1.04
CN(N=O)C(=O)N[C@H]1C(O)O[C@H](CO)[C@@H](O)[C@@H]1O (mixture of isomers) [Streptozotocin] (20 µM)    0.312
C=C(CC)C(=O)c1ccc(OCC(=O)O)c(Cl)c1Cl [Ethacrynic acid] (20 µM)    0.941
N=C(NCCCCCCNC(=N)NC(=N)Nc1ccc(Cl)cc1)NC(=N)Nc1ccc(Cl)cc1 [Chlorhexidine] (20 µM)    0.0867

Next compound, fold change of Tryptamine concentration to be filled in.
Notebook: pull reported fold change of Tryptamine concentration for Ruminococcus gnavus DSM 108212, entry Nc1nc2n[nH]nc2c(=O)[nH]1 [Azaguanine-8] (20 µM)
0.924

----------
System: Klebsiella aerogenes DSM 30053
test.description: fold change of Cadaverine concentration vs plate DMSO controls (fold change (ratio)); higher = more amine produced, active = hit call of the paper (significant change in both replicates, either direction)
details: incubation time: 27 h, anaerobic, 37 °C
Where a name gives a salt, the structure may show the parent alone.
property: fold change of Cadaverine concentration
Give bare numbers.

Here are 3 compounds together with their reported answers.
O=C(Oc1ccccc1)c1ccccc1O [Phenyl salicylate] (20 µM)    1
C[C@@H]1C[C@H]2[C@@H]3C[C@H](F)C4=CC(=O)C=C[C@]4(C)[C@@]3(Cl)[C@@H](O)C[C@]2(C)[C@H]1C(=O)COC(=O)C(C)(C)C [Clocortolone pivalate] (20 µM)    0.997
CC1(C)S[C@@H]2[C@H](NC(=O)C(C(=O)O)c3ccccc3)C(=O)N2[C@H]1C(=O)O (some centres undefined) [Carbenicillin disodium salt] (20 µM)    1.05

Would you mind giving fold change of Cadaverine concentration for every compound in the list below?
1. CCCOc1ccc(C(=O)OCCN(CC)CC)cc1N [Proparacaine hydrochloride] (20 µM)
2. CC(C)=CCOc1ccc(/C=C/C(=O)c2ccc(OCC=C(C)C)cc2OCC(=O)O)cc1 [Sofalcone] (20 µM)
3. Clc1ccc2c(c1)C(N1CCNCC1)=Nc1ccccc1O2 [Amoxapine] (20 µM)

1. 1.04
2. 0.992
3. 1

----------
Test system: Clostridium sporogenes DSM 1664
test.description: fold change of Tryptamine concentration vs plate DMSO controls (fold change (ratio)); higher = more amine produced, active = hit call of the paper (significant change in both replicates, either direction);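 for the amine columns active = adjusted P below 0.05 in both replicates with a change the same way and a mean fold change under 0.8 or over 1.25; inactive = the rest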
details: incubation time: 27 h, anaerobic, 37 °C
Structures can show the parent of a compound that is named as a salt.
Return exactly one item of true (active), false (inactive)

Field: example entries. Status: answers known.
CCOc1ccccc1C(N)=O [Ethenzamide] (20 µM)    false
NS(=O)(=O)c1cc2c(cc1Cl)NC(Cc1ccccc1)NS2(=O)=O (stereo not given) [Benzylhydrochlorothiazide] (20 µM)    false
CN(C)CC/C=C1\c2ccccc2CSc2ccccc21 [Dosulepin hydrochloride] (20 µM)    false
COc1ccc2c3c1O[C@H]1C[C@@H](O)C=C[C@@]31CCN(C)C2 [Galanthamine hydrobromide] (20 µM)    false
CC(=O)N(CC(C)C(=O)O)c1c(I)cc(I)c(N)c1I (stereo not given) [Iocetamic acid] (20 µM)    false
CCN(CC)C(=O)N1CCN(C)CC1 [Diethylcarbamazine citrate] (20 µM)    false
CC(C)(CO)[C@@H](O)C(=O)NCCCC(=O)O [Hopantenate calcium] (20 µM)    false
O=[N+]([O-])c1ccc2c(c1)Cc1ccccc1-2 [2-Nitrofluorene] (20 µM)    false

Any idea what this test logged for CCOc1ccccc1OCCN[C@H](C)Cc1ccc(OC)c(S(N)(=O)=O)c1 [(R)-Tamsulosin hydrochloride] (20 µM) ?
false

Which result was noted for this compound in the test: C#CCN(C)Cc1ccccc1 [Pargyline hydrochloride] (20 µM)
false

Tell me the recorded outcome of this test for Oc1ccc(C2CNCCc3c2cc(O)c(O)c3Cl)cc1 (stereo not given) [Fenoldopam] (20 µM) .
false

What did this assay record as the result for CN1CCN(c2c(F)cc3c(=O)c(C(=O)O)cn4c3c2SCC4)CC1 [Rufloxacin] (20 µM) ?
true

I'd appreciate the recorded outcome for Nc1c(CC(=O)O)cccc1C(=O)c1ccc(Br)cc1 [Bromfenac] (20 µM) from this test.
false

// outcome(item) with item = C=CC1=C(C(=O)O)N2C(=O)[C@@H](NC(=O)/C(=N\O)c3csc(N)n3)[C@H]2SC1 [Cefdinir] (20 µM)
true

// outcome(item) with item = CNc1ncnc2c1ncn2[C@@H]1O[C@H](CO)[C@@H](O)[C@H]1O [N6-methyladenosine] (20 µM)
false
